molecular target: JAK2 (Homo sapiens)
Sequence (O60674 whole entry): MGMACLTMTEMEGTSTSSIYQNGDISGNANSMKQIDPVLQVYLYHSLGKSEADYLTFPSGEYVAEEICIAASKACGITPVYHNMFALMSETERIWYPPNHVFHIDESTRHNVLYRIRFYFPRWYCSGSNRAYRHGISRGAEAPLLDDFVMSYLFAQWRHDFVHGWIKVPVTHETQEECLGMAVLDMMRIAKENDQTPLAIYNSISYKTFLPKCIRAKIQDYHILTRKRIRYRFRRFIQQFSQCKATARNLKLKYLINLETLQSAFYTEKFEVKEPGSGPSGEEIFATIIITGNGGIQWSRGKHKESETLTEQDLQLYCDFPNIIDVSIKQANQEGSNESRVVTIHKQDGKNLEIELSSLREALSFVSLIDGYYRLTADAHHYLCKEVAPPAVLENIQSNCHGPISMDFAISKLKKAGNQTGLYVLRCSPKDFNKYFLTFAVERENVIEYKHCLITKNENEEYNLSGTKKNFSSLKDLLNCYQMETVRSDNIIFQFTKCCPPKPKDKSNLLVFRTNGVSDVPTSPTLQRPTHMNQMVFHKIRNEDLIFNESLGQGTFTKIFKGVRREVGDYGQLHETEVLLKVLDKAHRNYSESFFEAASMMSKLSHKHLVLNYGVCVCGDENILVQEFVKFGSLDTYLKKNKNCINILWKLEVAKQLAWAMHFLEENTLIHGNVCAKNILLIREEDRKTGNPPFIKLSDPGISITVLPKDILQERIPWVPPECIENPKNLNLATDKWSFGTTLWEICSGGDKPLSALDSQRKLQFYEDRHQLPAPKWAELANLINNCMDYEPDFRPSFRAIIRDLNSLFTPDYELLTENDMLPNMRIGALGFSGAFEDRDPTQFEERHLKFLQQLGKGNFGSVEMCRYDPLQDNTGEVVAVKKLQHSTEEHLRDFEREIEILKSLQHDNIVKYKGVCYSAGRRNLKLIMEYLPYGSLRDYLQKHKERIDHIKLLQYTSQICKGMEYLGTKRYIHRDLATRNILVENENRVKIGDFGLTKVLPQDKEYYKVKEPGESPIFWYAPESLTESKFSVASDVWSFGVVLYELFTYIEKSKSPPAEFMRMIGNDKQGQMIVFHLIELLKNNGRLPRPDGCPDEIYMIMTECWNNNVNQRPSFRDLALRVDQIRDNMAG
property_name: pIC50
pIC50 here is simply -log10 of the concentration when that concentration is written in mol/L.

Record request: pIC50 value, item Cn1cc(-c2cn3ncnc3c(-c3ccn([C@]4(CC#N)C[C@@H](C#N)C4)c3)n2)cn1 [TDM-181020]
5.62

Hello, the source for this data is patent US20240043429A1, in case you need it.
